# subject.of.test: T1, human CX3CR1 (human, UniProt P49238 1-355)
# T1 construct: overexpressed on CHO, BA/F3 or HEK293T cells; also called huCX3CR1; hCX3CR1
# T1 sequence: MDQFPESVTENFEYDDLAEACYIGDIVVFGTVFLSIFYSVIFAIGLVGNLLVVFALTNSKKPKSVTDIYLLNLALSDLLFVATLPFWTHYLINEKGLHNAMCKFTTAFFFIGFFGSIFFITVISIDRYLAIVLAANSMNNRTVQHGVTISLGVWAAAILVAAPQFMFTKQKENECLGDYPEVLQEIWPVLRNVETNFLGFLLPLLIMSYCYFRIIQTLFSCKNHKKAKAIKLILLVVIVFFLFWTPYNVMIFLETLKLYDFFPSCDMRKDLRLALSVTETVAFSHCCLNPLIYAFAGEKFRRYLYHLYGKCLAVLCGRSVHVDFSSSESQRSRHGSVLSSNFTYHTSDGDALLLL
# assay.notes: periplasmic extract, A647-fractalkine competition FACS, CHO-huCX3CR1

{"binder": "CX3CR1BIIPMP61F11 (VHH, not shown: C-terminal c-myc and His6 tags) VHH: KVQLVESGGGSVQAGESLRLSCAASGSIFSSNAMAWYRQPPGKQRDLVAAINSVGITKYADSVKGRFTIFRDNAKNTVYLQMNSLKPEDTAVYYCTSDPRRGWDTRYWGQGTQVTVSS", "% block [%]": 96.5}
{"binder": "CX3CR1BIIPMP54H1 (VHH, also called 54H01; not shown: C-terminal c-myc and His6 tags) VHH: EVQLVESGGGSVQAGESLRLSCAASGTIFSSNAMAWYRQAPGKQRDLVAGINSVDITKYADSVKGRFTVSRDNAKNTVYLQMNSLKPEDTAVYYCTSDPRRGWNTRYWGQGTQVTVSS", "% block [%]": 74.6}
{"binder": "CX3CR1BIIPMP54B2 (VHH, tested as periplasmic extract; not shown: C-terminal c-myc and His6 tags) VHH: EVQLVESGGGSVQAGESLRLSCAASGTIFSSNAMAWYRQAPGKQRDLVAGINSVDITKYADSVKGRFTISRDNAKNTVYLQMNSLKPEDTAVYYCTSDPRRGWNTRYWGQGTLVTVSS", "% block [%]": 65.3}
{"binder": "CX3CR1BIIPMP61D5 (VHH, tested as periplasmic extract; not shown: C-terminal c-myc and His6 tags) VHH: KVQLVESGGGSVQAGESLRLSCAASGSIFSSNAMAWYRQAFGKQRDLVALINSVGITKYADSVKGRFTISRDNAKNTVYLQMNSLKPEDTAVYYCTSDPRRGWDTRYWGQGTQVTVSS", "% block [%]": 94.9}
{"binder": "CX3CR1BIIPMP18E6 (VHH, family 13; also called 18E06; CX3CR1BII18E06; not shown: C-terminal c-myc and His6 tags) VHH: KVQLVESGGGLVQPGGSLRLSCATSGTIFSNNAMGWYRQAPGKKRDLVASISSSGSTNYADSVKGRFTVSRDNDKNTGYLQMNSLKPEDTGVYYCTLDARRGWNTAYWGQGAQVTVSS", "% block [%]": 53.1}
{"binder": "CX3CR1BIIPMP61F10 (VHH, tested as periplasmic extract; not shown: C-terminal c-myc and His6 tags) VHH: KVQLVESGGGSVQAGESLRLSCAASGTIFSSNAMAWYRQAPGKQRDLVAGINSVDITKYADSVKGRFTISRDNAKNTVYLQMNSLKPEDTAVYYCTSDPRRGWNTRYWGQGTQVTVSS", "% block [%]": 73.5}
{"binder": "CX3CR1BIIPMP54A12 (VHH, also called CX3CR1BII54A12; not shown: C-terminal c-myc and His6 tags) VHH: EVQLVESGGGSVQAGESLRLSCAASGSIFSSNAMAWYRQAPGKQRDLVAVINSVGITKYADSVKGRFTISGDNAKNTVYLQMNSLKPEDTAVYYCTSDARRGWDTRYWGQGTQVTVSS", "% block [%]": 93.8}
{"binder": "CX3CR1BIIPMP61B2 (VHH, also called 61B02; not shown: C-terminal c-myc and His6 tags) VHH: EVQLVESRGGSVQAGASLRLSCAASGSIFSSNAMAWYRQAPGKQRDLVAVINTVGITKYADSVKGRFTISRDNAKNTVYLQMNSLKPEDTAVYYCTSDARRGWDTRYWGQGTQVTVSS", "% block [%]": 94.5}
